Recorded IC50, one value per entry.
test system: Namalwa, a Burkitt lymphoma cell line; assay: In vitro potency (WST-8 cell viability assay), Namalwa; format: cell-based; conditions: free drug; read-out: IC50 Namalwa
Only the number, expressed in pM, is required.

COc1cc2c(cc1OCc1cccc(COc3cc4c(cc3OC)C(=O)N3c5ccccc5C[C@H]3C=N4)c1)N=C[C@@H]1Cc3ccccc3N1C2=O [Compound 29a] = 2
COCCOCCOCCN(CC(C)(C)S(C)=S)c1cc(COc2cc3c(cc2OC)C(=O)N2c4ccccc4C[C@H]2C=N3)cc(COc2cc3c(cc2OC)C(=O)N2c4ccccc4C[C@H]2CN3)c1 (stereo partly drawn) = 69

Next:
Recorded IC50 of COc1cc2c(cc1OCc1cccc(COc3cc4c(cc3OC)C(=O)N3c5ccccc5C[C@H]3CN4)c1)N=C[C@@H]1Cc3ccccc3N1C2=O [Compound 29b] , please.
3
